These data points were gathered from DBAASP.

Each item that follows carries a reported MIC.
System: Staphylococcus aureus ATCC 6538

| STRUCTURE | SUBJECT_OF_TEST | MIC |
| --- | --- | --- |
| CC(C)C[C@H](NC(=O)[C@H](C)NC(=O)[C@H](Cc1ccccc1)NC(=O)[C@H](CCCCN)NC(=O)[C@H](CCCCN)NC(=O)[C@H](C)NC(=O)[C@H](CC(C)C)NC(=O)[C@H](CCCCN)NC(=O)[C@H](C)NC(=O)[C@H](CC(C)C)NC(=O)[C@H](CC(C)C)NC(=O)[C@H](CCCCN)NC(=O)[C@H](C)NC(=O)[C@@H](N)Cc1ccccc1)C(N)=O | Staphylococcus aureus ATCC 6538 | 32 µM |
| CC[C@H](C)[C@H](NC(=O)CN)C(=O)N[C@@H](CC(C)C)C(=O)NCC(=O)N[C@@H](CCCCN)C(=O)N[C@@H](CC(C)C)C(=O)N[C@@H](Cc1c[nH]c2ccccc12)C(=O)N[C@@H](CCC(=O)O)C(=O)NCC(=O)N[C@H](C(=O)N[C@@H](CCCCN)C(=O)N[C@@H](CO)C(=O)N[C@H](C(=O)N[C@@H](Cc1ccccc1)C(N)=O)[C@@H](C)CC)C(C)C | Staphylococcus aureus ATCC 6538 | 8.08 µM |
| CC(C)C[C@H](NC(=O)[C@H](CCCCN)NC(=O)[C@H](CCCCN)NC(=O)[C@H](C)NC(=O)[C@H](CC(C)C)NC(=O)[C@H](CCCCN)NC(=O)[C@H](CCCCN)NC(=O)[C@H](CC(C)C)NC(=O)[C@H](CCCCN)NC(=O)[C@H](CCCCN)NC(=O)[C@H](C)NC(=O)[C@H](CC(C)C)NC(=O)[C@H](CCCCN)NC(=O)[C@H](CCCCN)NC(=O)[C@H](C)NC(=O)[C@@H](N)Cc1ccccc1)C(=O)N[C@@H](C)C(=O)N[C@@H](CCCCN)C(=O)O | Staphylococcus aureus ATCC 6538 | 7.3 µM |
